TGT: BTK-GFP (Homo sapiens, UniProt Q06187+Q96SW2)
Construct: expressed in transfected cells; host or cells: HEK293A (Invitrogen R70507), lentiviral transduction with pLenti6-BTK-GFP-Ires-RFP, blasticidin selection
ASSAY_NAME: BTK-GFP protein abundance flow cytometry assay in HEK293A cells
Type: cell-based
MEASUREMENT_CONDITIONS: HEK293A BTK-GFP-iresRFP cells, 24 h; % protein remaining at the concentration at which maximum degradation is seen
QUANTITY_NAME: BTK deg Amax (%)
# value in %; strip the unit string

Request: Would you mind telling me what BTK deg Amax value was observed for CCOc1ccc(C(=O)N2CCC3(CCN(Cc4ccc(-c5cc6c(-c7cc(F)cc(NC(=O)c8ccc(C(C)(C)O)cc8F)c7C)ncnc6[nH]5)cc4)CC3)CC2)cc1N1CCC(=O)NC1=O [Compound 4] ?
Result: 7.8

Request: What measured BTK deg Amax goes with COc1ccc(C(=O)N2CCC(CCN3CCN(Cc4ccc(-c5cc6c(-c7cc(F)cc(NC(=O)c8ccc(C(C)(C)O)cc8F)c7C)ncnc6[nH]5)cc4)CC3)CC2)cc1N1CCC(=O)NC1=O [Compound 17] ?
Result: 11.0

Request: Returns the measured BTK deg Amax for the input molecule. Input: COc1ccc(C(=O)N2CCC3(CCN(Cc4ccc(-c5cc6c(-c7cc(F)cc(NC(=O)c8ccc(C(C)(C)O)cc8F)c7C)ncnc6[nH]5)cc4)C3)CC2)cc1N1CCC(=O)NC1=O [Compound 49]
Result: 49.4

Request: Can you look up the measured BTK deg Amax of COc1ccc(C(=O)N2CCC(O[C@H]3CC[C@H](OCc4ccc(-c5cc6c(-c7cc(F)cc(NC(=O)c8ccc(C(C)(C)O)cc8F)c7C)ncnc6[nH]5)cc4)CC3)CC2)cc1N1CCC(=O)NC1=O [Compound 56] for me?
Result: 4.4

Request: # query: BTK deg Amax of entry COc1ccc(C(=O)N2CC3(CCN(Cc4ccc(-c5cc6c(-c7cc(F)cc(NC(=O)c8ccc(C(C)(C)O)cc8F)c7C)ncnc6[nH]5)cc4)CC3)C2)cc1N1CCC(=O)NC1=O [Compound 32]
Result: 15.4

====

TGT: BTK(C481S)-GFP (Homo sapiens, UniProt Q06187+Q96SW2, C481S)
Construct: CHYSEL (cis-acting hydrolase element, 2A) remnant after GFP; mCherry is split off as a separate protein (C); expressed in transfected cells; host or cells: TMD8 cells, lentiviral transduction with pLenti6-BTK(C481S)-GFP-CHYSEL-mCherry
Sequence (Q06187 whole entry C481S): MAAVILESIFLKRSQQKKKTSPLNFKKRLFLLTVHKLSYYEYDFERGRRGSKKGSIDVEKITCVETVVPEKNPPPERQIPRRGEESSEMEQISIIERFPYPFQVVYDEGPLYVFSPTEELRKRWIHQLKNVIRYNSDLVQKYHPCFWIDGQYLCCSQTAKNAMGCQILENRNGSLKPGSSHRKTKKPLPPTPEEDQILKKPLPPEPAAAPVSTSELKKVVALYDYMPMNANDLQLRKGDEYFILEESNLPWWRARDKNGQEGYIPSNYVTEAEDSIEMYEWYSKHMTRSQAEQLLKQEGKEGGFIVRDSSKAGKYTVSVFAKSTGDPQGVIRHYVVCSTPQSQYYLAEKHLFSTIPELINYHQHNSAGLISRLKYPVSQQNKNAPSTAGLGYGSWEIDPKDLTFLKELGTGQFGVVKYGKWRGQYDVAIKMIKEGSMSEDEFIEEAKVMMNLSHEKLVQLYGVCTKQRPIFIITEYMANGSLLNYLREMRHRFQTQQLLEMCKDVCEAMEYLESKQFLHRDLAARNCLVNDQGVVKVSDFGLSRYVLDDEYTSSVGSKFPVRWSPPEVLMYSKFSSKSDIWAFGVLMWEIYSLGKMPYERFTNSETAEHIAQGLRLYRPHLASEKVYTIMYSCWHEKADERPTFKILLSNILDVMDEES
Sequence (Q96SW2 whole entry): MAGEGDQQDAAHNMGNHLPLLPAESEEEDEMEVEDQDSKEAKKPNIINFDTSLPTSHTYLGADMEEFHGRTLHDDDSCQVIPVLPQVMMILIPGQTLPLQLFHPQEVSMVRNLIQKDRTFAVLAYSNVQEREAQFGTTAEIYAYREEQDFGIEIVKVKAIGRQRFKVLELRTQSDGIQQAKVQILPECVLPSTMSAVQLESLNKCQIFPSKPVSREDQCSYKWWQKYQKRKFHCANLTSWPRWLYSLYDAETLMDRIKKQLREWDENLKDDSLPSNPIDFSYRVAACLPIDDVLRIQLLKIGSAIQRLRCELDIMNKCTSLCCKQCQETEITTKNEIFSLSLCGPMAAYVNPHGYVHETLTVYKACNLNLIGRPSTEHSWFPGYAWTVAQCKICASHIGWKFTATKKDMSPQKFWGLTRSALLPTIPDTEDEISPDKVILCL
Sequence (Q16531 whole entry partner): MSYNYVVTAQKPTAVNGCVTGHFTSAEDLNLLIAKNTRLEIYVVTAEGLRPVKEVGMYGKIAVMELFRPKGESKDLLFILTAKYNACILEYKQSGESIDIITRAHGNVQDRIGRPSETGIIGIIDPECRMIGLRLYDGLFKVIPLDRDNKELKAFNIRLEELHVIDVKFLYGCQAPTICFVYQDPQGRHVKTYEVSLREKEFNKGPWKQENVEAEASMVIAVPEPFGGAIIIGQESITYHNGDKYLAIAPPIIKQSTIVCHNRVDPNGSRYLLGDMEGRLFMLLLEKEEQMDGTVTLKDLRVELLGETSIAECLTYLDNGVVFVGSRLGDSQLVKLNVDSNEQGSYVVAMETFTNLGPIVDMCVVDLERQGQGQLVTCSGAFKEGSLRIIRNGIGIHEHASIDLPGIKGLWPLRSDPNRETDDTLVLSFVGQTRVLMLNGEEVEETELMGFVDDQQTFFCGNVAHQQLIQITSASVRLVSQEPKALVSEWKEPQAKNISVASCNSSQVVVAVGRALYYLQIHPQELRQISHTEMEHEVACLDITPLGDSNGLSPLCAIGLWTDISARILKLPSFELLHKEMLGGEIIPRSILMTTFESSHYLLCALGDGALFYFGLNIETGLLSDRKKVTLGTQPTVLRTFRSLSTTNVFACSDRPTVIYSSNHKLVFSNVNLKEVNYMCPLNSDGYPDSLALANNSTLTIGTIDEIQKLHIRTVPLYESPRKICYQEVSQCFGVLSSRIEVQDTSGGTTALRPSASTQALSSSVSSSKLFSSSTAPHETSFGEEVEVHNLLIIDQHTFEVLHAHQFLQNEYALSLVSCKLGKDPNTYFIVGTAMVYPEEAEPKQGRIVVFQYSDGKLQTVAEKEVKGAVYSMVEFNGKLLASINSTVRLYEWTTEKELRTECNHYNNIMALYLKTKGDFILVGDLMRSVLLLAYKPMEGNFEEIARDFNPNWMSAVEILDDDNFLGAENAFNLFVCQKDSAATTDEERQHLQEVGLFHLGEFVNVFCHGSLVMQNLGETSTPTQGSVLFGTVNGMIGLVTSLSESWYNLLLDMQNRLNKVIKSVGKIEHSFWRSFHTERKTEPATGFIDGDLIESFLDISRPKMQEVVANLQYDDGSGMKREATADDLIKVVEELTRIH
ASSAY_NAME: BTK(C481S)-GFP protein abundance flow cytometry assay in TMD8 cells
Format: cell-based
MEASUREMENT_CONDITIONS: TMD8 cells expressing BTK(C481S)-GFP, GFP signal by flow cytometry
Give DC50 for every item shown.
Could you give me the number in nM? Just the number is fine.

Request: Return reported DC50; argument: Cc1ccc(C(=O)N(C)CCCCCNCc2ccc(-c3cc4c(-c5cc(F)cc(NC(=O)c6ccc(C(C)(C)O)cc6F)c5C)ncnc4[nH]3)cc2)cc1N1CCC(=O)NC1=O [Compound 30]
Result: 8.18

Request: Recorded DC50 of Cc1c(NC(=O)c2ccc(C(C)(C)O)cc2F)cc(F)cc1-c1ncnc2[nH]c(-c3ccc(CN4CCC5(CC4)CCN(C(=O)c4ccc(F)c(N6CCC(=O)NC6=O)c4)CC5)cc3)cc12 [Compound 14] , please.
Result: 1.52

Request: What does the record list as DC50 for COc1ccc(C(=O)N2CCC3(CCN(Cc4ccc(-c5cc6c(-c7cc(F)cc(NC(=O)c8ccc(C(C)(C)O)cc8F)c7C)ncnc6[nH]5)cc4)CC3)CC2)cc1N1CCC(=O)NC1=O [Compound 9] ?
Result: 1.92

Request: // query DC50 value for entry Cc1c(NC(=O)c2ccc(C(C)(C)O)cc2F)cc(F)cc1-c1ncnc2[nH]c(-c3ccc(CCN4CCC5(CC4)CCN(C(=O)c4ccc(F)c(N6CCC(=O)NC6=O)c4)CC5)cc3)cc12 [Compound 47]
Result: 0.72

Request: Find the recorded DC50 belonging to Cc1c(NC(=O)c2ccc(C(C)(C)O)cc2F)cc(F)cc1-c1ncnc2[nH]c(-c3ccc(COC4CCN(CCC5CCN(C(=O)c6ccc(F)c(N7CCC(=O)NC7=O)c6)CC5)CC4)cc3)cc12 [Compound 6] and report it.
Result: 0.72

====

Please respond with reported GI50 for every item in the list.
Tested on: TMD8 cells
ASSAY_NAME: Resazurin cell viability (proliferation) assay in TMD8 DLBCL cells
Format: cell-based
MEASUREMENT_CONDITIONS: Homo sapiens, TMD8 cells (BTK dependent), 72 h, 50% growth inhibition vs vehicle, read-out: TMD8 Prol GI50
Only the number, expressed in nM, is required.

Request: // fetch TMD8 cells GI50 for Cc1ccc(C(=O)N2CCC(OC3CCN(CCc4ccc(-c5cc6c(-c7cc(F)cc(NC(=O)c8ccc(C(C)(C)O)cc8F)c7C)ncnc6[nH]5)cc4)CC3)CC2)cc1N1CCC(=O)NC1=O [Compound 10]
Result: 0.36

Request: Given the entry COc1ccc(C(=O)N2CCC3(CCN(Cc4ccc(-c5cc6c(-c7cc(F)cc(NC(=O)c8ccc(C(C)(C)O)cc8F)c7C)ncnc6[nH]5)cc4)C[C@@H]3CO)CC2)cc1N1CCC(=O)NC1=O (single isomer, unassigned) [Compound 24] , what GI50 was observed with TMD8 cells?
Result: 5.98

Request: Enter reported GI50 observed with TMD8 cells for COc1ccc(C(=O)N2CCC3(CCN(Cc4ccc(-c5cc6c(-c7cc(F)cc(NC(=O)c8ccc(C(C)(C)O)cc8F)c7C)ncnc6[nH]5)cc4)CC3CO)CC2)cc1N1CCC(=O)NC1=O (racemic) [Compound 23]
Result: 5.35

Request: Form: Entry = COc1ccc(C(=O)N2CCN(CCN3CCC(OCc4ccc(-c5cc6c(-c7cc(F)cc(NC(=O)c8ccc(C(C)(C)O)cc8F)c7C)ncnc6[nH]5)cc4)CC3)CC2)cc1N1CCC(=O)NC1=O [Compound 21] | System = TMD8 cells | GI50 = ____
Result: 0.6

====

TGT: BTK-GFP (Homo sapiens, UniProt Q06187+Q96SW2)
Construct: expressed in transfected cells; host or cells: HEK293A (Invitrogen R70507), lentiviral transduction with pLenti6-BTK-GFP-Ires-RFP, blasticidin selection
ASSAY_NAME: BTK-GFP protein abundance flow cytometry assay in HEK293A cells
Format: cell-based
MEASUREMENT_CONDITIONS: HEK293A BTK-GFP-iresRFP cells, 24 h; % protein remaining at the concentration at which maximum degradation is seen
Can you tell me BTK deg Amax for the items I'm about to list?
The answer is to be given in %; state only the numeric part.

Request: Sample COc1ccc(C(=O)N2CCC(O[C@H]3CC[C@@H](Oc4ccc(-c5cc6c(-c7cc(F)cc(NC(=O)c8ccc(C(C)(C)O)cc8F)c7C)ncnc6[nH]5)cc4)CC3)CC2)cc1N1CCC(=O)NC1=O [Compound 54] — what was its BTK deg Amax?
Result: 4.4

Request: Need BTK deg Amax of COc1ccc(C(=O)N2CCC(CCN3CCC(Oc4ccc(-c5cc6c(-c7cc(F)cc(NC(=O)c8ccc(C(C)(C)O)cc8F)c7C)ncnc6[nH]5)cc4)CC3)CC2)cc1N1CCC(=O)NC1=O [Compound 38] , thanks.
Result: 4.1

Request: So what's the measured BTK deg Amax for this one? COc1ccc(C(=O)N2CCC3(CCN(CCCc4ccc(-c5cc6c(-c7cc(F)cc(NC(=O)c8ccc(C(C)(C)O)cc8F)c7C)ncnc6[nH]5)cc4)CC3)CC2)cc1N1CCC(=O)NC1=O [Compound 11]
Result: 4.7

Request: Request the reported BTK deg Amax associated with Cc1c(NC(=O)c2ccc(C(C)(C)O)cc2F)cc(F)cc1-c1ncnc2[nH]c(-c3ccc(CN4CCC5(CCN(CCCNC(=O)c6ccc(Cl)c(N7CCC(=O)NC7=O)c6)CC5)CC4)cc3)cc12 [Compound 57]
Result: 8.9

Request: What BTK deg Amax value was documented for this molecule, COc1ccc(C(=O)N2CCN(CCNCCCOCc3ccc(-c4cc5c(-c6cc(F)cc(NC(=O)c7ccc(C(C)(C)O)cc7F)c6C)ncnc5[nH]4)cc3)CC2)cc1N1CCC(=O)NC1=O [Compound 45] ?
Result: 3.2

Request: Entry Cc1ccc(C(=O)N(C)CCCCCNCc2ccc(-c3cc4c(-c5cc(F)cc(NC(=O)c6ccc(C(C)(C)O)cc6F)c5C)ncnc4[nH]3)cc2)cc1N1CCC(=O)NC1=O [Compound 30] : reported BTK deg Amax = ?
Result: 5.4

====

Test system: TMD8 cells
ASSAY_NAME: Resazurin cell viability (proliferation) assay in TMD8 DLBCL cells
Type: cell-based
MEASUREMENT_CONDITIONS: Homo sapiens, TMD8 cells (BTK dependent), 72 h, 50% growth inhibition vs vehicle, read-out: TMD8 Prol GI50
QUANTITY_NAME: log10 GI50 (log10 of the value in nM)
Reminder: these figures are log10 of reported GI50, in nM before transformation.

Request: Find the recorded log10 GI50 belonging to `Cc1cc(F)c(C(=O)NCCCCCNCc2ccc(-c3cc4c(-c5cc(F)cc(NC(=O)c6ccc(C(C)(C)O)cc6F)c5C)ncnc4[nH]3)cc2)cc1N1CCC(=O)NC1=O` and report it.
Result: 0.35

Request: Looking for the measured log10 GI50 of `Cc1ccc(C(=O)N2CCC3(CCN(CCc4ccc(-c5cc6c(-c7cc(F)cc(NC(=O)c8ccc(C(C)(C)O)cc8F)c7C)ncnc6[nH]5)cc4)CC3)CC2)cc1N1CCC(=O)NC1=O` , can you help?
Result: -0.33

Request: Endpoint output: log10 GI50 of `COc1ccc(C(=O)N2CCC3(CCN(Cc4ccc(-c5cc6c(-c7cc(F)cc(NC(=O)c8ccc(C(C)(C)O)cc8F)c7C)ncnc6[nH]5)cc4)CC3)CC2)cc1N1CCC(=O)NC1=O` . Value?
Result: -0.28

Request: Tell me the measured log10 GI50 of `COc1ccc(C(=O)N2CCN(CCNCCCOCc3ccc(-c4cc5c(-c6cc(F)cc(NC(=O)c7ccc(C(C)(C)O)cc7F)c6C)ncnc5[nH]4)cc3)CC2)cc1N1CCC(=O)NC1=O` , please.
Result: 1.28

Request: // log10 GI50 lookup, key: `COc1ccc(C(=O)N2CCC3(CC2)CCN(C(C)(C)Cc2ccc(-c4cc5c(-c6cc(F)cc(NC(=O)c7ccc(C(C)(C)O)cc7F)c6C)ncnc5[nH]4)cc2)CC3)cc1N1CCC(=O)NC1=O`
Result: -0.28

Request: Give the measured log10 GI50 of `COc1ccc(C(=O)N2CCN(C(=O)N3CCN(Cc4ccc(-c5cc6c(-c7cc(F)cc(NC(=O)c8ccc(C(C)(C)O)cc8F)c7C)ncnc6[nH]5)cc4)CC3)CC2)cc1N1CCC(=O)NC1=O` .
Result: 0.68

Request: Param item = `COc1ccc(C(=O)NCCN2CCC3(CC2)CCN(Cc2ccc(-c4cc5c(-c6cc(F)cc(NC(=O)c7ccc(C(C)(C)O)cc7F)c6C)ncnc5[nH]4)cc2)CC3)cc1N1CCC(=O)NC1=O` ; retrieve measured log10 GI50.
Result: 0.57

Request: Quick check: log10 GI50 of `COc1ccc(C(=O)N2CCC(CN3CCN(Cc4ccc(-c5cc6c(-c7cc(F)cc(NC(=O)c8ccc(C(C)(C)O)cc8F)c7C)ncnc6[nH]5)cc4)CC3)CC2)cc1N1CCC(=O)NC1=O` ?
Result: -0.41

Request: Item `COc1ccc(C(=O)NCCN2CCOC3(CCN(Cc4ccc(-c5cc6c(-c7cc(F)cc(NC(=O)c8ccc(C(C)(C)O)cc8F)c7C)ncnc6[nH]5)cc4)CC3)C2)cc1N1CCC(=O)NC1=O` has what recorded log10 GI50?
Result: 0.68

Request: Looking for the measured log10 GI50 of COc1ccc(C(=O)N2CCC3(CCN(Cc4ccc(-c5cc6c(-c7cc(F)cc(NC(=O)c8ccc(C(C)(C)O)cc8F)c7C)ncnc6[nH]5)cc4)CC3)[C@@H](CO)C2)cc1N1CCC(=O)NC1=O (single isomer, unassigned) , can you help?
Result: 0.55

Request: Any idea what log10 GI50 was measured for `COc1ccc(C(=O)N2CCN(CCCCNCc3ccc(-c4cc5c(-c6cc(F)cc(NC(=O)c7ccc(C(C)(C)O)cc7F)c6C)ncnc5[nH]4)cc3)CC2)cc1N1CCC(=O)NC1=O` ?
Result: 0.54

Request: Which log10 GI50 reading was recorded for the compound `COc1ccc(C(=O)N2CCC3(CCN(CCc4ccc(-c5cc6c(-c7cc(F)cc(NC(=O)c8ccc(C(C)(C)O)cc8F)c7C)ncnc6[nH]5)cc4)CC3)CC2)cc1N1CCC(=O)NC1=O` ?
Result: -0.34
